Recorded values, source the supplement of paper PMC10307832.

Tested on: NCI-H1944
Experiment: relative viability (nuclei count vs DMSO), 5 days (fraction); higher = more cells survive
Details: first compound 0.04 µM
The entries below come with measured relative viability values attached.
Respond numerically, and do not add a unit to the figure.

Some solved cases for reference:
compound	recorded.metric	recorded.value
COc1cc(N2CCC(C(N)=O)CC2)ccc1Nc1nc(N)c(Cl)c(Nc2ccccc2S(=O)(=O)C(C)C)n1 [HG-5-88-01] + CS(=O)(=O)CCNCc1ccc(-c2ccc3ncnc(Nc4ccc(OCc5cccc(F)c5)c(Cl)c4)c3c2)o1 [Lapatinib] (partner 2 µM)	relative viability	0.656
C[C@@H]1CN(CC(=O)Nc2ccc3c(c2)Cc2cccc(-c4cc(=O)cc(N5CCOCC5)o4)c2S3)C[C@H](C)O1 + COc1cc2c(Oc3ccc(NC(=O)C4(C(=O)Nc5ccc(F)cc5)CC4)cc3F)ccnc2cc1OCCCN1CCOCC1 [Foretinib] (partner 0.25 µM)	relative viability	0.761

Given item COc1cc(N2CCC(C(N)=O)CC2)ccc1Nc1nc(N)c(Cl)c(Nc2ccccc2S(=O)(=O)C(C)C)n1 [HG-5-88-01] + C[C@]1(O)C[C@@H](c2nc(-c3ccc4ccc(-c5ccccc5)nc4c3)c3c(N)nccn32)C1 [Linsitinib] (partner 1 µM) , the value recorded as its relative viability is 1.14

Short answer for COc1cc(N2CCC(C(N)=O)CC2)ccc1Nc1nc(N)c(Cl)c(Nc2ccccc2S(=O)(=O)C(C)C)n1 [HG-5-88-01] + Cc1nc(Nc2ncc(C(=O)Nc3c(C)cccc3Cl)s2)cc(N2CCN(CCO)CC2)n1 [Dasatinib] (partner 0.075 µM) : relative viability was 0.205

The compound identified as Clc1ccc(Nc2nnc(Cc3ccncc3)c3ccccc23)cc1 [Vatalanib] + CCNC(=O)c1noc(-c2cc(C(C)C)c(O)cc2O)c1-c1ccc(CN2CCOCC2)cc1 [Luminespib] (partner 0.01 µM) registered its relative viability at 0.796

The recorded relative viability for entry Clc1ccc(Nc2nnc(Cc3ccncc3)c3ccccc23)cc1 [Vatalanib] + CS(=O)(=O)CCNCc1ccc(-c2ccc3ncnc(Nc4ccc(OCc5cccc(F)c5)c(Cl)c4)c3c2)o1 [Lapatinib] (partner 2 µM) equals 0.904

The compound listed as COc1cc(N2CCC(C(N)=O)CC2)ccc1Nc1nc(N)c(Cl)c(Nc2ccccc2S(=O)(=O)C(C)C)n1 [HG-5-88-01] + NC(=O)Nc1cc(-c2cccc(F)c2)sc1C(=O)N[C@H]1CCCNC1 [AZD7762] (partner 0.2 µM) has a reported relative viability of 0.586

COc1cc(N2CCC(C(N)=O)CC2)ccc1Nc1nc(N)c(Cl)c(Nc2ccccc2S(=O)(=O)C(C)C)n1 [HG-5-88-01] + COc1cc2c(Oc3ccc(NC(=O)C4(C(=O)Nc5ccc(F)cc5)CC4)cc3F)ccnc2cc1OCCCN1CCOCC1 [Foretinib] (partner 0.25 µM) has a reported relative viability of 0.874

====

Test system: LOU-NH91
Experiment: relative viability (nuclei count vs DMSO), 5 days (fraction); higher = more cells survive
Settings: first compound 0.04 µM
recorded.metric: relative viability
Answer with a bare number; do not write a unit.

Here's what some known entries look like.
molecule	relative viability
Clc1ccc(Nc2nnc(Cc3ccncc3)c3ccccc23)cc1 [Vatalanib] + CS(=O)(=O)CCNCc1ccc(-c2ccc3ncnc(Nc4ccc(OCc5cccc(F)c5)c(Cl)c4)c3c2)o1 [Lapatinib] (partner 2 µM)	0.763
C[C@@H]1CN(CC(=O)Nc2ccc3c(c2)Cc2cccc(-c4cc(=O)cc(N5CCOCC5)o4)c2S3)C[C@H](C)O1 + O=C(CCCCCCC(=O)Nc1ccccc1)NO [Vorinostat] (partner 1 µM)	0.611
C[C@@H]1CN(CC(=O)Nc2ccc3c(c2)Cc2cccc(-c4cc(=O)cc(N5CCOCC5)o4)c2S3)C[C@H](C)O1 + COc1cccc2cc(-c3nc([C@H]4CC[C@H](C(=O)O)CC4)n4ncnc(N)c34)[nH]c12 [OSI-027] (partner 0.5 µM)	0.746
Clc1ccc(Nc2nnc(Cc3ccncc3)c3ccccc23)cc1 [Vatalanib] + CC(=O)c1c(C)c2cnc(Nc3ccc(N4CCNCC4)cn3)nc2n(C2CCCC2)c1=O [Palbociclib] (partner 0.5 µM)	0.549

Note: attention shifts to another entry.
For reference, reported relative viability for C[C@@H]1CN(CC(=O)Nc2ccc3c(c2)Cc2cccc(-c4cc(=O)cc(N5CCOCC5)o4)c2S3)C[C@H](C)O1 + N=C(N)NC(=N)NCCc1ccccc1 [Phenformin] (partner 250 µM) stands at 0.792
